- TARGET_OR_SYSTEM: T1, human CD47 extracellular domain with a histidine- (HIS-) tag (Sino Biological, China) (human, UniProt Q08722 19-139)
- T1 construct: extracellular domain; also called huCD47; huCD47 protein (Sino Biological, China 10161-H08H); not shown: histidine tag
- EXPERIMENT_NOTES: competition ELISA on huCD47 after 35A
ENDPOINT: competition matrix cell (no name or unit printed)

BINDER | RESULT
anti-CD47 AlivaMab antibody 5 (antibody, IgG1, V domains shown, Chimeric AlivaMab Mouse mAb from hybridoma: human V, CH1 and upper hinge, mouse middle hinge, CH2 and CH3, human kappa light chain; also called clone 5; mAb 5) VH: QVQLQESGPGLVKPSETLSLTCTVSGGSISSYYWSWIRQPPGKGLEWIGYIYYSGSTNYNPSLKSRVTISVDTSKNQFSLKLSSVTAADTAVYYCARGKGGTDYWGQGTLVTVSS VL: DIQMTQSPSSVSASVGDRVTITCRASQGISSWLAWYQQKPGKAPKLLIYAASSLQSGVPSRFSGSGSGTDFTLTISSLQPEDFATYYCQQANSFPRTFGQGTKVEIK | 97
anti-CD47 AlivaMab antibody 85 (antibody, IgG1, V domains shown, Chimeric AlivaMab Mouse mAb from hybridoma: human V, CH1 and upper hinge, mouse middle hinge, CH2 and CH3, human kappa light chain; also called clone 85; mAb 85) VH: QVQLQESGPGLVKASETLSLTCTVSGGSISGYYWSWIRQPAGKGLEWIGRIYNSGSTNYNPSLKSRVTMSVDTSKNQFSLKLSSVTAADTAVYYCARQTYLDYWGQGTLVTVSS VL: DIQMTQSPSAMSASVGDRVTITCRASQGISIYLAWFQQKPGKVPKRLIYAASSLQSGVPSRFSGSGSGTEFTLTISSLQPEDFATYYCLQHNSYPLTFGGGTKVEIK | 104
anti-CD47 AlivaMab antibody 164 (antibody, IgG1, V domains shown, Chimeric AlivaMab Mouse mAb from hybridoma: human V, CH1 and upper hinge, mouse middle hinge, CH2 and CH3, human kappa light chain; also called clone 164; mAb 164) VH: QVQLQESGPGLVKPSETLSLTCTVSGGSISSYYWSWIRQPPGKGLEWIGYVYYSGGTNYNPSLKSRVTISVDTSKNQFSLKLSSVTAADTAVYYCARKRGTFDYWGQGTLVTVSS VL: DIQMTQSPSSVSASVGDRVTITCRASQGISSWLAWYQQKPGKAPKLLIYAASSLQSGVPSRFSGSGSGTDFTLTISSLQPEDFATYFCQQANSFPLTFGGGTKVEIK | 117
anti-CD47 AlivaMab antibody 161 (antibody, IgG1, V domains shown, Chimeric AlivaMab Mouse mAb from hybridoma: human V, CH1 and upper hinge, mouse middle hinge, CH2 and CH3, human kappa light chain; also called clone 161; mAb 161) VH: QVQLQESGPGLVKPSETLSLTCTVSGGSISSYYWSWIRQPPGKGLEWIGYIYYSGSTNYNPSLKSRVTISVDTSKNQFSLKLSSVTAADTAVYYCARSRYFDLWGRGTLVTVSS VL: DIQMTQSPSAMSTSVGDRVTITCRASQGISNFLAWFQQKPGKVPKRLIYAASSLQSGVPSRFSGSGSGTEFTLTISSLQPEDFATYYCLQHNSYPYTFGQGTKLEIK | 109
